Test system: NCI-H226
assay_procedure: Anticancer activity against human NCI-H226 cells assessed as cell growth inhibition at 10 uM incubated for 48 hrs by SRB assay relative to control
Format: functional
test_context: read-out: GI
observable: inhibition of growth at 10 µM (%)

>>> reading("NS(=O)(=O)c1ccc(Nc2nc(N/N=C/c3ccc4c(c3)OCO4)nc(Nc3ccccc3)n2)cc1")
34
>>> reading("CN(C)c1ccc(/C=N/Nc2nc(Nc3ccccc3)nc(Nc3ccc(S(N)(=O)=O)cc3)n2)cc1")
21
>>> reading("NS(=O)(=O)c1ccc(Nc2nc(N/N=C/c3cccc4ccccc34)nc(Nc3ccccc3)n2)cc1")
19
>>> reading("NS(=O)(=O)c1ccc(Nc2nc(N/N=C/c3cccs3)nc(Nc3ccccc3)n2)cc1")
29
>>> reading("NS(=O)(=O)c1ccc(Nc2nc(N/N=C/c3ccccn3)nc(Nc3ccccc3)n2)cc1")
149
>>> reading("NS(=O)(=O)c1ccc(Nc2nc(N/N=C/c3ccccc3)nc(Nc3ccccc3)n2)cc1")
22
>>> reading("NS(=O)(=O)c1ccc(Nc2nc(N/N=C/c3ccc(C(F)(F)F)cc3)nc(Nc3ccccc3)n2)cc1")
63
>>> reading("NS(=O)(=O)c1ccc(Nc2nc(N/N=C/c3ccc(F)cc3)nc(Nc3ccccc3)n2)cc1")
49
>>> reading("NS(=O)(=O)c1ccc(Nc2nc(N/N=C/C=C/c3ccccc3)nc(Nc3ccccc3)n2)cc1")
41
>>> reading("NS(=O)(=O)c1ccc(Nc2nc(N/N=C/c3ccc([N+](=O)[O-])cc3)nc(Nc3ccccc3)n2)cc1")
40
>>> reading("NS(=O)(=O)c1ccc(Nc2nc(N/N=C/c3c[nH]c4ccccc34)nc(Nc3ccccc3)n2)cc1")
58
>>> reading("Cc1nn(-c2ccccc2)cc1/C=N/Nc1nc(Nc2ccccc2)nc(Nc2ccc(S(N)(=O)=O)cc2)n1")
159
>>> reading("NS(=O)(=O)c1ccc(Nc2nc(N/N=C/c3ccc(Cl)cc3)nc(Nc3ccccc3)n2)cc1")
18
>>> reading("COc1ccc(/C=N/Nc2nc(Nc3ccccc3)nc(Nc3ccc(S(N)(=O)=O)cc3)n2)cc1")
26
>>> reading("Cc1ccc(/C=N/Nc2nc(Nc3ccccc3)nc(Nc3ccc(S(N)(=O)=O)cc3)n2)cc1")
20

====

Tested on: HOP-62
assay_procedure: Anticancer activity against human HOP-62 cells assessed as cell growth inhibition at 10 uM incubated for 48 hrs by SRB assay relative to control
Assay type: functional
test_context: read-out: GI
observable: inhibition of growth at 10 µM (%)

>>> reading("NS(=O)(=O)c1ccc(Nc2nc(N/N=C/C=C/c3ccccc3)nc(Nc3ccccc3)n2)cc1")
43
>>> reading("Cc1nn(-c2ccccc2)cc1/C=N/Nc1nc(Nc2ccccc2)nc(Nc2ccc(S(N)(=O)=O)cc2)n1")
90
>>> reading("CN(C)c1ccc(/C=N/Nc2nc(Nc3ccccc3)nc(Nc3ccc(S(N)(=O)=O)cc3)n2)cc1")
12
>>> reading("NS(=O)(=O)c1ccc(Nc2nc(N/N=C/c3c[nH]c4ccccc34)nc(Nc3ccccc3)n2)cc1")
36
>>> reading("NS(=O)(=O)c1ccc(Nc2nc(N/N=C/c3ccc4c(c3)OCO4)nc(Nc3ccccc3)n2)cc1")
70
>>> reading("NS(=O)(=O)c1ccc(Nc2nc(N/N=C/c3ccc(F)cc3)nc(Nc3ccccc3)n2)cc1")
82

====

Tested on: Malme-3M
assay_procedure: Anticancer activity against human Malme-3M cells assessed as cell growth inhibition incubated for 48 hrs by SRB assay
Format: functional
test_context: read-out: LC50 (the source's name)
# CC50 per record follows
observable: CC50 (µM)

>>> reading("Cc1nn(-c2ccccc2)cc1/C=N/Nc1nc(Nc2ccccc2)nc(Nc2ccc(S(N)(=O)=O)cc2)n1")
6.13
>>> reading("NS(=O)(=O)c1ccc(Nc2nc(N/N=C/c3ccc(C(F)(F)F)cc3)nc(Nc3ccccc3)n2)cc1")
8.15
>>> reading("NS(=O)(=O)c1ccc(Nc2nc(N/N=C/c3ccccn3)nc(Nc3ccccc3)n2)cc1")
6.28

====

Tested on: U-251
assay_procedure: Anticancer activity against human U-251 cells assessed as cell growth inhibition at 10 uM incubated for 48 hrs by SRB assay relative to control
Type: functional
test_context: read-out: GI
observable: inhibition of growth at 10 µM (%)

>>> reading("COc1ccc(/C=N/Nc2nc(Nc3ccccc3)nc(Nc3ccc(S(N)(=O)=O)cc3)n2)cc1")
33
>>> reading("NS(=O)(=O)c1ccc(Nc2nc(N/N=C/c3ccccc3)nc(Nc3ccccc3)n2)cc1")
14
>>> reading("NS(=O)(=O)c1ccc(Nc2nc(N/N=C/c3ccccn3)nc(Nc3ccccc3)n2)cc1")
155
>>> reading("CCCCc1nc(/C=N/Nc2nc(Nc3ccccc3)nc(Nc3ccc(S(N)(=O)=O)cc3)n2)c(Cl)[nH]1")
101
>>> reading("NS(=O)(=O)c1ccc(Nc2nc(N/N=C/C=C/c3ccccc3)nc(Nc3ccccc3)n2)cc1")
48
>>> reading("Cc1nn(-c2ccccc2)cc1/C=N/Nc1nc(Nc2ccccc2)nc(Nc2ccc(S(N)(=O)=O)cc2)n1")
122

====

# CC50 per record follows
Test system: HOP-92
assay_procedure: Anticancer activity against human HOP-92 cells assessed as cell growth inhibition incubated for 48 hrs by SRB assay
Format: functional
test_context: read-out: LC50 (the source's name)
observable: CC50

>>> reading("O=c1[nH]cc(F)c(=O)[nH]1")
"> 100 µM"
>>> reading("Cc1nn(-c2ccccc2)cc1/C=N/Nc1nc(Nc2ccccc2)nc(Nc2ccc(S(N)(=O)=O)cc2)n1")
"> 100 µM"
>>> reading("NS(=O)(=O)c1ccc(Nc2nc(N/N=C/c3ccccn3)nc(Nc3ccccc3)n2)cc1")
"> 100 µM"
>>> reading("NS(=O)(=O)c1ccc(Nc2nc(N/N=C/c3ccc(C(F)(F)F)cc3)nc(Nc3ccccc3)n2)cc1")
"39.8 µM"

====

Test system: SF-539
assay_procedure: Anticancer activity against human SF-539 cells assessed as cell growth inhibition at 10 uM incubated for 48 hrs by SRB assay relative to control
Assay type: functional
test_context: read-out: GI
observable: inhibition of growth at 10 µM

>>> reading("Cc1nn(-c2ccccc2)cc1/C=N/Nc1nc(Nc2ccccc2)nc(Nc2ccc(S(N)(=O)=O)cc2)n1")
"28%"
>>> reading("COc1ccc(/C=N/Nc2nc(Nc3ccccc3)nc(Nc3ccc(S(N)(=O)=O)cc3)n2)cc1")
"51%"
>>> reading("NS(=O)(=O)c1ccc(Nc2nc(N/N=C/c3ccccn3)nc(Nc3ccccc3)n2)cc1")
"142%"
>>> reading("NS(=O)(=O)c1ccc(Nc2nc(N/N=C/c3ccc(Cl)cc3)nc(Nc3ccccc3)n2)cc1")
"46%"
>>> reading("NS(=O)(=O)c1ccc(Nc2nc(N/N=C/c3ccccc3)nc(Nc3ccccc3)n2)cc1")
"23%"

====

# GI50 per record follows
Tested on: MDA-MB-435
assay_procedure: Anticancer activity against human MDA-MB-435 cells assessed as cell growth inhibition incubated for 48 hrs by SRB assay
Format: functional
observable: GI50 (nM)

>>> reading("O=c1[nH]cc(F)c(=O)[nH]1")
70
>>> reading("NS(=O)(=O)c1ccc(Nc2nc(N/N=C/c3ccccn3)nc(Nc3ccccc3)n2)cc1")
910
>>> reading("Cc1nn(-c2ccccc2)cc1/C=N/Nc1nc(Nc2ccccc2)nc(Nc2ccc(S(N)(=O)=O)cc2)n1")
1770
>>> reading("NS(=O)(=O)c1ccc(Nc2nc(N/N=C/c3ccc(C(F)(F)F)cc3)nc(Nc3ccccc3)n2)cc1")
2070

====

# CC50 per record follows
Tested on: U-251
assay_procedure: Anticancer activity against human U-251 cells assessed as cell growth inhibition incubated for 48 hrs by SRB assay
Assay type: functional
test_context: read-out: LC50 (the source's name)
observable: CC50

>>> reading("NS(=O)(=O)c1ccc(Nc2nc(N/N=C/c3ccc(C(F)(F)F)cc3)nc(Nc3ccccc3)n2)cc1")
"71.4 µM"
>>> reading("NS(=O)(=O)c1ccc(Nc2nc(N/N=C/c3ccccn3)nc(Nc3ccccc3)n2)cc1")
"> 100 µM"
>>> reading("Cc1nn(-c2ccccc2)cc1/C=N/Nc1nc(Nc2ccccc2)nc(Nc2ccc(S(N)(=O)=O)cc2)n1")
"> 100 µM"
>>> reading("O=c1[nH]cc(F)c(=O)[nH]1")
"> 100 µM"

====

System: OVCAR-3
assay_procedure: Anticancer activity against human OVCAR-3 cells assessed as cell growth inhibition incubated for 48 hrs by SRB assay
Format: functional
# GI50 per record follows
observable: GI50 (nM)

>>> reading("Cc1nn(-c2ccccc2)cc1/C=N/Nc1nc(Nc2ccccc2)nc(Nc2ccc(S(N)(=O)=O)cc2)n1")
3180
>>> reading("NS(=O)(=O)c1ccc(Nc2nc(N/N=C/c3ccccn3)nc(Nc3ccccc3)n2)cc1")
460
>>> reading("O=c1[nH]cc(F)c(=O)[nH]1")
10
>>> reading("NS(=O)(=O)c1ccc(Nc2nc(N/N=C/c3ccc(C(F)(F)F)cc3)nc(Nc3ccccc3)n2)cc1")
3320
